# Tested On: CO in intact RBL-1 cells (Rattus norvegicus, UniProt Q63921)
# Construct: 5-LO and CO in intact RBL-1 cells; endogenous in cells
# Sequence (Q63921 27-602): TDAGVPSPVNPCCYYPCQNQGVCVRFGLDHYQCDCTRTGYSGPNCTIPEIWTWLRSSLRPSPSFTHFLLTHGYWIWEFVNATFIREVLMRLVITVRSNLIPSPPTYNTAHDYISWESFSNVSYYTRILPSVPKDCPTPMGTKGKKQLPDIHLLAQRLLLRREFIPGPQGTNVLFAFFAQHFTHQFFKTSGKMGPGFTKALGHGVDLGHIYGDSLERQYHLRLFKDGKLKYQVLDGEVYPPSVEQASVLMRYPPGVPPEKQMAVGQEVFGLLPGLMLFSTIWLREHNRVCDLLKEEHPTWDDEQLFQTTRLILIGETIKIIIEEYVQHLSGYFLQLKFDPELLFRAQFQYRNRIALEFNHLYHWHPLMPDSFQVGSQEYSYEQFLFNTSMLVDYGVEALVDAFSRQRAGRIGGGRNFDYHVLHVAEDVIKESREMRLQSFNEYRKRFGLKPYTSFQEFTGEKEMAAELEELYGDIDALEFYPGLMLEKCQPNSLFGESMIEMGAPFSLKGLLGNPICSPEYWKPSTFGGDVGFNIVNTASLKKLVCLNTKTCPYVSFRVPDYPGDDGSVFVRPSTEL
# Method Notes: Procedure III: inhibition of CO in intact RBL-1 cells
Returns: string. Value is condition met if measured IC50 is below 4 µM, and condition not met if it is greater than or equal to it.

[[record]]
structure_notation = "COc1ccc(-n2nc(COC(=O)N(O)C(C)C)c(Br)c2-c2ccc(C)cc2)cc1"
classification = "condition met"

[[record]]
structure_notation = "COc1ccc(-n2nc(CCCOC(=O)NO)cc2-c2ccc(Cl)cc2)cc1"
classification = "condition not met"

[[record]]
structure_notation = "COc1ccc(-n2nc(CCOC(=O)N(O)C(C)C)cc2-c2ccc(Cl)cc2)cc1"
classification = "condition met"

[[record]]
structure_notation = "COc1ccc(-n2nc(CCCOC(=O)N(O)C(C)C)c(Cl)c2-c2ccc(Cl)cc2)cc1"
classification = "condition not met"

